Experimental System: DOT1L (Homo sapiens, UniProt Q8TEK3)
Construct: purchased DiscoverX BROMOscan (bromodomains); SGC in-house methyltransferase panel
Sequence (Q8TEK3 whole entry): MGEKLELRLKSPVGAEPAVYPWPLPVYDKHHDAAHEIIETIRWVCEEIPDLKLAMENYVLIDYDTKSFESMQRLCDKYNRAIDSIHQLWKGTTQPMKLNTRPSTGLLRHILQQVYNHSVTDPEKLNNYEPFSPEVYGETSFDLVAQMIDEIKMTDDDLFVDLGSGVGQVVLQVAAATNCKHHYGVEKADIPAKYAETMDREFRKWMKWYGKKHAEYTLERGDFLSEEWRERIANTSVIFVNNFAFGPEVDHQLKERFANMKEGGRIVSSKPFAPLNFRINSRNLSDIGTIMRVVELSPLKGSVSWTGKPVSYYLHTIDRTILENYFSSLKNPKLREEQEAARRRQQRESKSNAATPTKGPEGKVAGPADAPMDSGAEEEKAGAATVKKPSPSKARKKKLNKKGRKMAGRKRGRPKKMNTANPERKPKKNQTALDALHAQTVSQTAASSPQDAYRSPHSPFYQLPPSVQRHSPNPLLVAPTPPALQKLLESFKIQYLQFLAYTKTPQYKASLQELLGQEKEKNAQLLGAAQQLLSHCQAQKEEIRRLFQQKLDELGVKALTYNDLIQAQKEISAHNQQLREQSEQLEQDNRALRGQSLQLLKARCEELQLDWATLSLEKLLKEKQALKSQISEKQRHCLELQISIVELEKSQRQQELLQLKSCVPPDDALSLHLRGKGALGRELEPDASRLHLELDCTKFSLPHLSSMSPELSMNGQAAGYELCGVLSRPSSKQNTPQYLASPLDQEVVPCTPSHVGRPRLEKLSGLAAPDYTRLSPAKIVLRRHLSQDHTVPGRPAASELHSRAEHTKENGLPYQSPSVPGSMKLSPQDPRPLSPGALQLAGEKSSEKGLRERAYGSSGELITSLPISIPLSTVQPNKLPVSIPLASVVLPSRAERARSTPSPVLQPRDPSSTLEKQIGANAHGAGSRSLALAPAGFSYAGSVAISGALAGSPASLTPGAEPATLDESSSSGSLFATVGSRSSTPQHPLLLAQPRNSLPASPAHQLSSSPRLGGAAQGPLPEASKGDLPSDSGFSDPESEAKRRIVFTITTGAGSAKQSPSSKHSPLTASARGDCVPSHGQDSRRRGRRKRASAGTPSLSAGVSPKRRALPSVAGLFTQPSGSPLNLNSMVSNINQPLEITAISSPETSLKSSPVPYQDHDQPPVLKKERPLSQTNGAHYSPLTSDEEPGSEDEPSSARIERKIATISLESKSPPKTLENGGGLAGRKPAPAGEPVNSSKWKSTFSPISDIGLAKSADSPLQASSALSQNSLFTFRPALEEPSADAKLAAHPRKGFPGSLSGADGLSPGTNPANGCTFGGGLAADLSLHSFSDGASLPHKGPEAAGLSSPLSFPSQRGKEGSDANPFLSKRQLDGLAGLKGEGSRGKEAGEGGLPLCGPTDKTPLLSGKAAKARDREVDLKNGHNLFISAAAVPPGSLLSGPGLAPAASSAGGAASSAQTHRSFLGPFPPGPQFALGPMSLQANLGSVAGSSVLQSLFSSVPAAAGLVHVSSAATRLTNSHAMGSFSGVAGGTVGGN
Protocol Text: Methyl transferase scintillation proximity assay
Format: biochemical
Cond: average of two measurements, read-out: MTases Inhibition (%)
Measured Quantity: inhibition at 10 µM

>>> result_value("CO[C@H]1CNC[C@@H](OCC2CCC(F)(F)CC2)[C@@H]1Nc1ncc(-c2cncc(C)c2)c2cc(C)c(=O)[nH]c12")
"5%"
>>> result_value("CN(C)CCCOc1ccc(-c2cc(NCCCn3cccn3)nc(S(C)(=O)=O)n2)cc1")
"6%"
>>> result_value("Cc1c(NC(=O)c2cc(C(N)=O)nc3cc(F)ccc23)c(C(F)(F)F)nn1Cc1ccc(C#N)cc1")
"-6%"
>>> result_value("COc1cc(Cl)c(C(=O)N[C@@H](CN[C@H]2CC[C@@H](N)CC2)Cc2ccc(C#N)cc2)cc1-c1ccc(CN[C@H](C)c2ccc(C)cc2)o1")
"3%"
>>> result_value("Cc1c(NC(=O)c2cc(C(N)=O)nc3cc(F)ccc23)c(C(F)(F)F)nn1Cc1ccc(C(C)(C)C)cc1")
"3%"
>>> result_value("CN1C[C@H](Nc2cnn(C)c(=O)c2Br)C[C@H](c2ccccc2)C1")
"-2%"
>>> result_value("Cc1nnc2c3ccccc3c(N[C@@H](C)[C@H](c3ccccc3)N(C)C)nn12")
"1%"
